- assay-method-text: Mouse Pharmacokinetic Study (Example 1C)
- Type: in vivo
- test-conditions: mouse; CD-1 mice, iv, 3 mg/kg; plasma
assay-readout: log10 of AUC(0-t) (log10 of the value in ng·h/mL)
Hello, just confirming the data are log10 of AUC(0-t) with units of ng·h/mL.

Any idea what its log10 of AUC(0-t) is? The molecule is CN(C)c1cnn2c(N[C@H]3Cc4ccc(O)cc4C3)cc(-c3cncc(F)c3)nc12 [I-204b] 2.66

Subsequent entry: Fc1cncc(-c2cc(NCCc3c[nH]c4ccccc34)n3nccc3n2)c1 [I-103] 3.06

Subsequent entry: CC(C)c1cnn2c(N[C@@H]3CCc4[nH]c5ccccc5c4C3)cc(-c3cncc(F)c3)nc12 [I-75a] 3.43

Subsequent entry: C[C@@H](O)c1cnn2c(NCCc3c[nH]c4ccccc34)cc(-c3cncc(F)c3)nc12 [I-222a] 3.12

Subsequent entry: Cc1[nH]c2c(F)cc(F)cc2c1CCNc1cc(-c2cncc(F)c2)nc2c(C(C)C)cnn12 [I-107] 1.94

Subsequent entry: C[C@@H](O)c1cnn2c(N[C@@H]3CCc4[nH]c5ccccc5c4C3)cc(-c3cncc(F)c3)nc12 [I-198a] 2.88

Subsequent entry: Fc1cncc(-c2nc(N[C@@H]3CCc4[nH]c5ccccc5c4C3)c3ncccc3n2)c1 [I-126] 3.16

Subsequent entry: O=C(c1cnn2c(NCCc3c[nH]c4ccccc34)cc(-c3cncc(F)c3)nc12)N1CCOCC1 [I-65] 2.72
